The origin of these recorded values is patent US20240002497A1.

- TEST TARGET: T1, huNav1.7α + β1-β2-β3 (human, UniProt Q15858 1-1988; A5A6L6 19-218; O60939 30-215; Q2KI11 23-215)
- T1 construct: Cell line (CHO FlpIn, HEK FlpIn, transient HEK293T) is named under assay; also called huNav1.7-beta1-beta2-beta3; human Nav1.7α with Navβ1, Navβ2 and Navβ3
- TEST METHOD NOTES: binding FACS, CHO FlpIn cells
pEC50: −log10 of the molar value.
TEST READOUT: pEC50

BINDER	pEC50
F010301604 (VHH, R100aQ vs F0103362B08 (Kabat)) VHH: EVQLVESGGGLVQAGGSLRLSCAASVRPFSTSAMGWFRQAPEKEREAVAGILWNGIVTYYADSVKGRFTISRDNAKNEVYLQMNKLKPEDTAVYYCALDRDYGGQSFSAYEYEYWGQGTLVTVSS	6.72
F010302365 (VHH) VHH: EVQLVESGGGVVQPGGSLRLSCAASSRAFIRDVFTGWYRRAPGKQRELVARIYNGGNTNYADSAKGRFTISRDNAKKTVYLQMNSLRPEDTALYYCLFSGTISTGREYRSGDYWGQGTLVTVSS	8.51

a: F010302352 (VHH) VHH: EVQLVESGGGVVQPGGSLRLSCAASHRQFIRDVFTGWYRRAPGKQRELVARIYNEGNTQYADSVKGRFTISRDNAKKTVYLQMNSLRPEDTALYYCLFSGTISTGREYRSGDYWGQGTLVTVSS
b: F010301619 (VHH, F100cK vs F0103362B08 (Kabat)) VHH: EVQLVESGGGLVQAGGSLRLSCAASVRPFSTSAMGWFRQAPEKEREAVAGILWNGIVTYYADSVKGRFTISRDNAKNEVYLQMNKLKPEDTAVYYCALDRDYGGRSKSAYEYEYWGQGTLVTVSS
Record comparison, field pEC50: mark the lower of a and b . Your choice should be expressed through its label. b
(b: 6.74, a: 8.44)

P: F010302340 (VHH) VHH: EVQLVESGGGVVQPGGSLRLSCAASHRAFIRDLFTGWYRRAPGKQRELVARIYESGNTNYADSAKGRFTISRDNAKKTVYLQMNSLRPEDTALYYCLFSGTISTGREYRSGDYWGQGTLVTVSS
Q: F010301621 (VHH, Y100fG vs F0103362B08 (Kabat)) VHH: EVQLVESGGGLVQAGGSLRLSCAASVRPFSTSAMGWFRQAPEKEREAVAGILWNGIVTYYADSVKGRFTISRDNAKNEVYLQMNKLKPEDTAVYYCALDRDYGGRSFSAGEYEYWGQGTLVTVSS
Name the one with the greater pEC50 value, either P or Q as given. Give the chosen item's label as your response. P
(P: 8.34, Q: 6.82)

a: F010302342 (VHH) VHH: EVQLVESGGGVVQPGGSLRLSCAASSRQFIRDVFTGWYRQAPGKQRELVARIYNEGNTQYADSAKGRFTISRDNAKKTVYLQMNSLRPEDTALYYCLFSGTISTGREYRSGDYWGQGTLVTVSS
b: F010301586 (VHH, W52aA vs F0103362B08 (Kabat)) VHH: EVQLVESGGGLVQAGGSLRLSCAASVRPFSTSAMGWFRQAPEKEREAVAGILANGIVTYYADSVKGRFTISRDNAKNEVYLQMNKLKPEDTAVYYCALDRDYGGRSFSAYEYEYWGQGTLVTVSS
Choose between a and b : whose measured pEC50 value is numerically larger? // caller expects the label of the chosen entry a

I: F010302366 (VHH) VHH: EVQLVESGGGVVQPGGSLRLSCAASSRAFIRDVFTGWYRQAPGKQRELVARIYNGGNTNYADSAKGRFTISRDNAKKTVYLQMNSLRPEDTALYYCLFSGTISTGREYRSGDYWGQGTLVTVSS
II: F010301584 (VHH, W52aT vs F0103362B08 (Kabat)) VHH: EVQLVESGGGLVQAGGSLRLSCAASVRPFSTSAMGWFRQAPEKEREAVAGILTNGIVTYYADSVKGRFTISRDNAKNEVYLQMNKLKPEDTAVYYCALDRDYGGRSFSAYEYEYWGQGTLVTVSS
Field: lower pEC50 | Options: I / II Choose, then provide that item's label. II
(II: 6.96, I: 8.43)
